experimentalTarget: Muscarinic acetylcholine receptor
methodDescription: Displacement of [3H]quinuclidinyl benzilate from Wistar rat cortex muscarinic acetylcholine receptor by liquid scintillation counter method
reportedMetric: Ki (nM)
Kindly answer with a numeric value in nM, unit omitted.

structureString	reportedMetric	recordedNumber
C[C@]12CC[C@@H]3c4ccc(OCCCN5CCCC5)cc4CC[C@H]3[C@@H]1CC[C@@H]2N1CCCC1	Ki	110
CCNC(=O)[C@H]1CC(=O)[C@@]2(C)CC[C@@H]3c4ccc(OCCCN5CCC[C@H]5C)cc4CC[C@H]3[C@H]12	Ki	4700
C[C@]12CC[C@@H]3c4ccc(OCCCN5CCCC5=O)cc4CC[C@H]3[C@@H]1CC[C@@H]2N1CCCC1	Ki	700
C[C@@H]1CCCN1CCCOc1ccc2c(c1)CC[C@@H]1[C@@H]2CC[C@]2(C)[C@@H](C(=O)N3CCCC3)CC[C@@H]12	Ki	454

Read the next record carefully.
Value lookup for Ki; key = C[C@@H]1CCCN1CCCOc1ccc2c(c1)CC[C@H]1[C@@H]3[C@@H](C(=O)NCC4CCC4)CC[C@@]3(C)CC[C@H]21 1708

====

experimentalTarget: Voltage-gated inwardly rectifying potassium channel KCNH2 (Homo sapiens)
Sequence (Q12809 whole entry): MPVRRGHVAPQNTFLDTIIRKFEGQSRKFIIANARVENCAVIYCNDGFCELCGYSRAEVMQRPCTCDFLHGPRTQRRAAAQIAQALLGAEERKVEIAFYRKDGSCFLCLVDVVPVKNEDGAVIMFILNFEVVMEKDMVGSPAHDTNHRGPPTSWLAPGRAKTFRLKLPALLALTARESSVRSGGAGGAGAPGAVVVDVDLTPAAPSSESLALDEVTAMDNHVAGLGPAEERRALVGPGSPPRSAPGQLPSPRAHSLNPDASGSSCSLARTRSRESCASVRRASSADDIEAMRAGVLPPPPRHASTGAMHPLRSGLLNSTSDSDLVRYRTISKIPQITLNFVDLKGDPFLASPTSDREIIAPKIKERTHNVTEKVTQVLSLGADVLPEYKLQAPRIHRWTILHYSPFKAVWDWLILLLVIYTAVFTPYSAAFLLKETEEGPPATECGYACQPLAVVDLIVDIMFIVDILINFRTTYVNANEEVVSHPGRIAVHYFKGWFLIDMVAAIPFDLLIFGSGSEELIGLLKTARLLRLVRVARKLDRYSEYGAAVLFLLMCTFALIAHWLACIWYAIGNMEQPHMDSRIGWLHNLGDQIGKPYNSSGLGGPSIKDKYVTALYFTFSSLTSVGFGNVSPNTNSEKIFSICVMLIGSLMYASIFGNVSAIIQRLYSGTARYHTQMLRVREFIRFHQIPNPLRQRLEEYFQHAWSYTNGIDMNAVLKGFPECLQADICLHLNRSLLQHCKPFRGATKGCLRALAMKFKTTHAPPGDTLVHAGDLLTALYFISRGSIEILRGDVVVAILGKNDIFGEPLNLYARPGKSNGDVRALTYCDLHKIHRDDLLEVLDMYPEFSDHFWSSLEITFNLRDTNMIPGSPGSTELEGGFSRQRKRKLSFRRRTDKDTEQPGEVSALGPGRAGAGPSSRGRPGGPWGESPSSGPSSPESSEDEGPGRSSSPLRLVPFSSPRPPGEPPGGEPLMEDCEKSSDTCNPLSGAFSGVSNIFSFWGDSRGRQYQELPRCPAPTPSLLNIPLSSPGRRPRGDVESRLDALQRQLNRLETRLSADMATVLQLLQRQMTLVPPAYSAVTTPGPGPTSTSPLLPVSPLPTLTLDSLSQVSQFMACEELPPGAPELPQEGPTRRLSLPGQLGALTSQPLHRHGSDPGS
Lab note: compare IC50 with 10 µM, writing Satisfied if less and Not satisfied if equal or more.

Consider the following illustrative entries.
structureString	experimentalTarget	label
C[C@@H]1CCCN1CCCOc1ccc2c(c1)CC[C@H]1[C@@H]3[C@@H](C(=O)NCC4CC4)CC[C@@]3(C)CC[C@H]21	Voltage-gated inwardly rectifying potassium channel KCNH2 (Homo sapiens)	Satisfied
CCNC(=O)[C@H]1CC[C@@]2(C)CC[C@@H]3c4ccc(OCCCN5CCC[C@H]5C)cc4CC[C@H]3[C@H]12	Voltage-gated inwardly rectifying potassium channel KCNH2 (Homo sapiens)	Satisfied
C[C@H]1CCCN1CCCOc1ccc2c(c1)CC[C@H]1[C@@H]3[C@H](C(=O)N4CCCC4)CC(=O)[C@@]3(C)CC[C@H]21	Voltage-gated inwardly rectifying potassium channel KCNH2 (Homo sapiens)	Not satisfied
C[C@]12CC[C@@H]3c4ccc(OCCCN5CCCC5)cc4CC[C@H]3[C@@H]1CC[C@@H]2N1CCCC1	Voltage-gated inwardly rectifying potassium channel KCNH2 (Homo sapiens)	Satisfied
CCNC(=O)[C@H]1C[C@H](OC)[C@@]2(C)CC[C@@H]3c4ccc(OCCCN5CCC[C@H]5C)cc4CC[C@H]3[C@H]12	Voltage-gated inwardly rectifying potassium channel KCNH2 (Homo sapiens)	Not satisfied

Moving on to another compound below.
Does this compound meet the criterion IC50 < 10 µM? CCNC(=O)[C@H]1CC(=O)[C@@]2(C)CC[C@@H]3c4ccc(OCCCN5CCC[C@H]5C)cc4CC[C@H]3[C@H]12 Not satisfied

====

methodDescription: Lipophilicity, logP of compound
Type: physicochemical
studyConditions: octanol/water
reportedMetric: logP
Give only the figure.

Value lookup for logP; key = CCNC(=O)[C@H]1CC(=O)[C@@]2(C)CC[C@@H]3c4ccc(OCCCN5CCC[C@H]5C)cc4CC[C@H]3[C@H]12 4.2

====

methodDescription: Solubility of compound in DMSO
Format: physicochemical
reportedMetric: solubility

Value lookup for solubility; key = CCNC(=O)[C@H]1CC(=O)[C@@]2(C)CC[C@@H]3c4ccc(OCCCN5CCC[C@H]5C)cc4CC[C@H]3[C@H]12 > 50 mM
